pIC50: −log10 of the molar value.
From various publications: pIC50 for Endothelin-1 receptor (Homo sapiens).
Classification field: class 1 = pIC50 at or over 8; class 0 = pIC50 under 8.

{"columns": ["COMPOUND", "DISCRETE LABEL"],
 "data": [
  ["Cc1cc(C)c(NC(=O)c2sccc2S(=O)(=O)Nc2onc(C)c2Cl)c(C)c1", "class 1"],
  ["COc1ccccc1S(=O)(=O)NC(=O)C(c1ccc2c(c1)OCO2)c1cn(C)c2cc(C(N)=O)ccc12 (stereo not drawn)", "class 1"],
  ["Cc1cc(C)c(CC(=O)c2sccc2S(=O)(=O)Nc2onc(C)c2Cl)c(C)c1O", "class 1"],
  ["COc1ccc([C@@H]2c3nc(NC(C)C)ccc3[C@H](c3ccc4c(c3)OCO4)[C@H]2C(=O)O)c(OC(C)C)c1", "class 1"],
  ["CC[C@H](C)[C@H](NC(=O)[C@H](CC(=O)O)NC(=O)[C@H](CCCN)NC(=O)[C@@H](Cc1ccc(O)cc1)NC(C)=O)C(=O)N[C@H](C(=O)N[C@@H](Cc1c[nH]c2ccccc12)C(=O)O)[C@@H](C)CC", "class 0"],
  ["Cc1noc(NS(=O)(=O)c2sccc2-c2ccccc2)c1Br", "class 0"],
  ["Cc1noc(NS(=O)(=O)c2ccsc2-c2ccccc2)c1Br", "class 0"],
  ["CCc1cc(F)cc(CC)c1NC(=O)CN1C[C@H](c2ccc3c(c2)OCO3)[C@@H](C(=O)O)[C@@H]1c1ccc(OC)cc1", "class 0"],
  ["COc1ccc([C@@H]2c3nc(NC(C)C)ccc3[C@H](c3ccc4c(c3)OCO4)[C@H]2C(=O)O)c(CC(O)CO)c1 (single isomer, unassigned)", "class 1"],
  ["COCCOc1ccc([C@H]2[C@H](C(=O)O)[C@@H](c3ccc4c(c3)OCO4)CN2CC(=O)NC(c2ccccc2)C(C)(C)C)cc1 (stereo partly drawn)", "class 0"],
  ["COc1ccc([C@@H]2c3nc(NC(C)C)ccc3[C@H](c3ccc4c(c3)OCO4)[C@H]2C(=O)O)c(CC(C)CO)c1 (stereo in doubt; form 1)", "class 1"],
  ["Nc1ccc(S(=O)(=O)Nc2nccs2)cc1", "class 0"],
  ["CCOc1cc(OC)ccc1[C@@H]1c2nc(NC(C)C)ccc2[C@H](c2ccc3c(c2)OCO3)[C@H]1C(=O)O", "class 1"],
  ["COc1ccc(NC(=O)c2sccc2S(=O)(=O)Nc2onc(C)c2Br)cc1", "class 0"],
  ["CCn1cc(C(C(=O)NS(=O)(=O)c2ccc(C(C)C)cc2)c2ccc3c(c2)OCO3)c2ccc(C(=O)NC)cc21 (stereo not drawn)", "class 0"],
  ["Cc1cc(C)c(NC(=O)c2sccc2S(=O)(=O)Nc2onc(C)c2Cl)c(C(=O)N(C)C)c1", "class 1"],
  ["C=CCCc1ccc2c(n1)[C@@H](c1ccc(OC)cc1)[C@H](C(=O)O)[C@H]2c1ccc2c(c1)OCO2", "class 1"],
  ["CCCCc1ccc2c(n1)[C@@H](c1ccc(OC)cc1)[C@H](C(=O)O)[C@H]2c1ccc2c(c1)OCO2", "class 1"],
  ["Cc1noc(NS(=O)(=O)c2cc(-c3ccccc3)cs2)c1Br", "class 0"],
  ["COc1ccc([C@H]2[C@H](C(=O)O)[C@@H](c3ccc4c(c3)OCO4)CN2CC(=O)NC(c2ccccc2)(c2ccccc2)c2ccccc2)cc1", "class 0"],
  ["COc1cccc(CC(=O)c2sccc2S(=O)(=O)Nc2onc(C)c2Cl)c1", "class 0"],
  ["C/C=C/C=C/C=C/C(=O)O[C@@H]1C=C2COC(O)[C@]2(O)[C@@]2(C)CCCC(C)(C)C12 (stereo partly drawn)", "class 0"],
  ["Cc1ccccc1NC(=O)c1sccc1S(=O)(=O)Nc1onc(C)c1Br", "class 0"],
  ["COc1ccc([C@@H]2c3nc(NC(C)C)ccc3[C@H](c3ccc4c(c3)OCO4)[C@H]2C(=O)O)c(OC(C)CO)c1 (stereo in doubt; form 2)", "class 1"],
  ["COc1ccc([C@H]2[C@H](C(=O)O)[C@@H](c3ccc4c(c3)OCO4)CN2CC(=O)NC2c3ccccc3-c3ccccc32)cc1", "class 0"]
]}
